Reported values of pIC50 for individual entries
Tested on: Endogenous Huntingtin Protein
Test: Endogenous Huntingtin Protein Assay (Meso Scale Discovery ELISA-based electrochemiluminescence)
Format: cell-based
Settings: MSD plates coated with MW1 (expanded polyglutamine) or MAB2166 capture antibody; lysates
pIC50: −log10 of the molar value.

chemicalString	resultValue
CC1(C)CC(n2nnc3cc(-c4cc5c(cc4O)/C(=N/O)CC5)nnc32)CC(C)(C)N1	6.30 to 7.00
Oc1cc(-c2cn[nH]c2)ccc1-c1cc2[nH]cc(C3CCNCC3)c2nn1	6.30 to 7.00
CC1(C)CC(N2CCc3cc(-c4ccc(-c5cn[nH]c5)cc4O)nnc32)CC(C)(C)N1	≥ 7.00
Oc1cc(-c2cn[nH]c2)ccc1-c1cc2cnn(C3CCNCC3)c2nn1	5.52 to 6.00
COc1n[nH]cc1-c1ccc(-c2cc3nnn(C4CC(C)(C)NC(C)(C)C4)c3nn2)c(O)c1	≥ 7.00
CC1(C)CC(n2nnc3cc(-c4ccc(-c5cn6ccnc6cn5)cc4O)nnc32)CC(C)(C)N1	≥ 7.00
CC1(C)CC(n2nnc3cc(-c4ccc(-c5ccnc6[nH]ccc56)cc4O)nnc32)CC(C)(C)N1	5.52 to 6.00

Item "Cc1cc(-c2ccc(-c3cc4nnn(C5CC(C)(C)NC(C)(C)C5)c4nn3)c(O)c2)ccn1" with Endogenous Huntingtin Protein - pIC50?
≥ 7.00

The reported numbers originate from patent US11858941B2.
